// data source = ChEMBL document CHEMBL4334508

Please consider the recorded pIC50 for Protease (Human immunodeficiency virus 1) in what follows.
pIC50: −log10 of the molar value.

Known pIC50 results, listed for orientation:
[[record]]
cpdsmiles = "CCCC(=O)O[C@H]1CC[C@]2(C)[C@H]3CC=C4[C@@H]5CC(C)(C)CC[C@]5(C(=O)NCCCCCC(=O)NCC(=O)O)CC[C@@]4(C)[C@]3(C)CC[C@H]2C1(C)C"
result = "< 4.30"

[[record]]
cpdsmiles = "CCC(=O)O[C@H]1CC[C@]2(C)[C@H]3CC=C4[C@@H]5CC(C)(C)CC[C@]5(C(=O)NCCCCCCCCCCC(=O)O)CC[C@@]4(C)[C@]3(C)CC[C@H]2C1(C)C"
result = "< 4.30"


Q: Reported pIC50 for CC1(C)CC[C@]2(C(=O)NCCCCCC(=O)NCC(=O)O)CC[C@]3(C)C(=CC[C@@H]4[C@@]5(C)CC[C@H](OC(=O)c6ccccc6C(=O)O)C(C)(C)[C@@H]5CC[C@]43C)[C@@H]2C1 : what is it?
A: 5.51

Q: Given CC(C)(CC(=O)O)CC(=O)O[C@H]1CC[C@]2(C)[C@H]3CC=C4[C@@H]5CC(C)(C)CC[C@]5(C(=O)NCCCCCCCCCCC(=O)NCC(=O)O)CC[C@@]4(C)[C@]3(C)CC[C@H]2C1(C)C , state its recorded pIC50.
A: < 4.30

Q: Give the measured pIC50 of CC1(C)CC[C@]2(C(=O)NCCCCCCCCCCC(=O)NCC(=O)O)CC[C@]3(C)C(=CC[C@@H]4[C@@]5(C)CC[C@H](OC(=O)CCCC(=O)O)C(C)(C)[C@@H]5CC[C@]43C)[C@@H]2C1 .
A: < 4.30

====

Observed IC50 for Protease (Human immunodeficiency virus 1, UniProt Q9YQ12), reported per entry below.

Observe how each entry below is paired with its result.
[[record]]
cpdsmiles = "CCCCCC(=O)O[C@H]1CC[C@]2(C)[C@H]3CC=C4[C@@H]5CC(C)(C)CC[C@]5(C(=O)NCCCCCC(=O)N[C@@H](C)C(=O)O)CC[C@@]4(C)[C@]3(C)CC[C@H]2C1(C)C"
result = "> 50 µM"

[[record]]
cpdsmiles = "CCCCCCCCCCCC(=O)O[C@H]1CC[C@]2(C)[C@H]3CC=C4[C@@H]5CC(C)(C)CC[C@]5(C(=O)NCCCCCCCCCCC(=O)N[C@H](C(=O)O)C(C)C)CC[C@@]4(C)[C@]3(C)CC[C@H]2C1(C)C"
result = "> 50 µM"


For the next question, use this compound.
Q: API: value(readout= IC50, system= Protease (Human immunodeficiency virus 1, UniProt Q9YQ12), query= CCCCCCCCCCCC(=O)O[C@H]1CC[C@]2(C)[C@H]3CC=C4[C@@H]5CC(C)(C)CC[C@]5(C(=O)NCCCC(=O)NCC(=O)O)CC[C@@]4(C)[C@]3(C)CC[C@H]2C1(C)C )
A: > 50 µM

====

biological target: Protease (Human immunodeficiency virus 1, UniProt Q9YQ12)
Sequence (Q9YQ12 whole entry): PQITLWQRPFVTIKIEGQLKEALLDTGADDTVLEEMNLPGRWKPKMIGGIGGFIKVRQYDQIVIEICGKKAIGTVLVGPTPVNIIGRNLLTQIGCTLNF
pIC50: −log10 of the molar value.
parameterMeasured: pIC50

Reference set, count: 10
[[record]]
cpdsmiles = "CC(=O)O[C@H]1CC[C@]2(C)[C@H]3CC=C4[C@@H]5CC(C)(C)CC[C@]5(C(=O)NCCCCCCCCCCC(=O)N[C@@H](C)C(=O)O)CC[C@@]4(C)[C@]3(C)CC[C@H]2C1(C)C"
result = "< 4.30"

[[record]]
cpdsmiles = "CCCCCC(=O)O[C@H]1CC[C@]2(C)[C@H]3CC=C4[C@@H]5CC(C)(C)CC[C@]5(C(=O)NCCCCCC(=O)N[C@H](C(=O)O)C(C)C)CC[C@@]4(C)[C@]3(C)CC[C@H]2C1(C)C"
result = "< 4.30"

[[record]]
cpdsmiles = "CC(C)[C@H](NC(=O)CCCCCCCCCCNC(=O)[C@]12CCC(C)(C)C[C@H]1C1=CC[C@@H]3[C@@]4(C)CC[C@H](OC(=O)c5ccccc5C(=O)O)C(C)(C)[C@@H]4CC[C@@]3(C)[C@]1(C)CC2)C(=O)O"
result = 5.92

[[record]]
cpdsmiles = "CCCCCCCCCCCC(=O)O[C@H]1CC[C@]2(C)[C@H]3CC=C4[C@@H]5CC(C)(C)CC[C@]5(C(=O)NCCCC(=O)N[C@H](C(=O)O)C(C)C)CC[C@@]4(C)[C@]3(C)CC[C@H]2C1(C)C"
result = "< 4.30"

[[record]]
cpdsmiles = "CCCCCCCCCCCC(=O)O[C@H]1CC[C@]2(C)[C@H]3CC=C4[C@@H]5CC(C)(C)CC[C@]5(C(=O)NCCCCCC(=O)NCC(=O)O)CC[C@@]4(C)[C@]3(C)CC[C@H]2C1(C)C"
result = "< 4.30"

[[record]]
cpdsmiles = "CCCCCCCCCCCC(=O)O[C@H]1CC[C@]2(C)[C@H]3CC=C4[C@@H]5CC(C)(C)CC[C@]5(C(=O)NCCCCCC(=O)N[C@@H](C)C(=O)O)CC[C@@]4(C)[C@]3(C)CC[C@H]2C1(C)C"
result = "< 4.30"

[[record]]
cpdsmiles = "CC(=O)O[C@H]1CC[C@]2(C)[C@H]3CC=C4[C@@H]5CC(C)(C)CC[C@]5(C(=O)NCCCCCC(=O)N[C@@H](C)C(=O)O)CC[C@@]4(C)[C@]3(C)CC[C@H]2C1(C)C"
result = 4.33

[[record]]
cpdsmiles = "CC(=O)O[C@H]1CC[C@]2(C)[C@H]3CC=C4[C@@H]5CC(C)(C)CC[C@]5(C(=O)NCCCC(=O)N[C@@H](C)C(=O)O)CC[C@@]4(C)[C@]3(C)CC[C@H]2C1(C)C"
result = "< 4.30"

[[record]]
cpdsmiles = "CCCCCCCCCCCC(=O)O[C@H]1CC[C@]2(C)[C@H]3CC=C4[C@@H]5CC(C)(C)CC[C@]5(C(=O)NCCCCCCCCCCC(=O)N[C@@H](C)C(=O)O)CC[C@@]4(C)[C@]3(C)CC[C@H]2C1(C)C"
result = "< 4.30"

[[record]]
cpdsmiles = "CC1(C)CC[C@]2(C(=O)NCCCCCCCCCCC(=O)NCC(=O)O)CC[C@]3(C)C(=CC[C@@H]4[C@@]5(C)CC[C@H](OC(=O)CCC(=O)O)C(C)(C)[C@@H]5CC[C@]43C)[C@@H]2C1"
result = "< 4.30"


Q: Give Protease (Human immunodeficiency virus 1, UniProt Q9YQ12) pIC50 for CCCCCC(=O)O[C@H]1CC[C@]2(C)[C@H]3CC=C4[C@@H]5CC(C)(C)CC[C@]5(C(=O)NCCCCCC(=O)NCC(=O)O)CC[C@@]4(C)[C@]3(C)CC[C@H]2C1(C)C
A: < 4.30

Q: Item CC(=O)O[C@H]1CC[C@]2(C)[C@H]3CC=C4[C@@H]5CC(C)(C)CC[C@]5(C(=O)NCCCCCCCCCCC(=O)NCC(=O)O)CC[C@@]4(C)[C@]3(C)CC[C@H]2C1(C)C with Protease (Human immunodeficiency virus 1, UniProt Q9YQ12) - pIC50?
A: < 4.30

Q: Notebook entry, Protease (Human immunodeficiency virus 1, UniProt Q9YQ12) assay: pIC50 of CCC(=O)O[C@H]1CC[C@]2(C)[C@H]3CC=C4[C@@H]5CC(C)(C)CC[C@]5(C(=O)NCCCCCCCCCCC(=O)N[C@@H](C)C(=O)O)CC[C@@]4(C)[C@]3(C)CC[C@H]2C1(C)C = ?
A: < 4.30

Q: Give the reported pIC50 for CC(=O)O[C@H]1CC[C@]2(C)[C@H]3CC=C4[C@@H]5CC(C)(C)CC[C@]5(C(=O)NCCCCCC(=O)N[C@H](C(=O)O)C(C)C)CC[C@@]4(C)[C@]3(C)CC[C@H]2C1(C)C (system: Protease (Human immunodeficiency virus 1, UniProt Q9YQ12)).
A: 4.52

Q: Look up pIC50 with Protease (Human immunodeficiency virus 1, UniProt Q9YQ12) for this compound: CCCCCC(=O)O[C@H]1CC[C@]2(C)[C@H]3CC=C4[C@@H]5CC(C)(C)CC[C@]5(C(=O)NCCCC(=O)NCC(=O)O)CC[C@@]4(C)[C@]3(C)CC[C@H]2C1(C)C
A: < 4.30

Q: Provide value of pIC50 for this record tested with Protease (Human immunodeficiency virus 1, UniProt Q9YQ12): CC(C)(CC(=O)O)CC(=O)O[C@H]1CC[C@]2(C)[C@H]3CC=C4[C@@H]5CC(C)(C)CC[C@]5(C(=O)NCCCCCCCCCCC(=O)O)CC[C@@]4(C)[C@]3(C)CC[C@H]2C1(C)C
A: < 4.30

Q: What is its pIC50 for Protease (Human immunodeficiency virus 1, UniProt Q9YQ12)? Entry: CCCCCCCCCCCC(=O)O[C@H]1CC[C@]2(C)[C@H]3CC=C4[C@@H]5CC(C)(C)CC[C@]5(C(=O)NCCCCCCCCCCC(=O)NCC(=O)O)CC[C@@]4(C)[C@]3(C)CC[C@H]2C1(C)C
A: < 4.30

Q: Identify the measured pIC50 of CC(=O)O[C@H]1CC[C@]2(C)[C@H]3CC=C4[C@@H]5CC(C)(C)CC[C@]5(C(=O)NCCCCCC(=O)O)CC[C@@]4(C)[C@]3(C)CC[C@H]2C1(C)C for Protease (Human immunodeficiency virus 1, UniProt Q9YQ12).
A: < 4.30

Q: Which measured pIC50 belongs to CCC(=O)O[C@H]1CC[C@]2(C)[C@H]3CC=C4[C@@H]5CC(C)(C)CC[C@]5(C(=O)NCCCC(=O)N[C@H](C(=O)O)C(C)C)CC[C@@]4(C)[C@]3(C)CC[C@H]2C1(C)C , tested on Protease (Human immunodeficiency virus 1, UniProt Q9YQ12)?
A: < 4.30
